The values you see were collected from patent US20250179103A1.

Test system: pY641-STAT6 in Peripheral Blood Mononuclear Cells (PBMC)
Experiment: MSD-pSTAT-PBMC Assay (pSTAT6, IL-4 stimulated)
Format: cell-based, Human
Conditions: Homo sapiens, compound 3 hrs, then 1 ng/mL IL-4 for 10 min
pIC50: −log10 of the molar value.
Reported pIC50 values for the following compounds.
Recorded endpoint: pIC50

Compound	Test result
CCCOC(=O)[C@H](C)NP(=O)(Oc1ccccc1)C(F)c1ccc2ccc(C(=O)N[C@H]3CN(C(C)=O)CC[C@H]4CC[C@@H](C(=O)N5CC(c6ccn(C)c(=O)c6)CC56CC6)N4C3=O)cc2c1 (stereo partly drawn)	6.00 to 7.00
Cc1ccc2[nH]nc(C(=O)N3CC[C@H]4CC[C@@H](C(=O)N(C)C)N4C(=O)[C@@H](NC(=O)c4cc5cc(CP(=O)(N[C@@H](C)C(=O)OC(C)C)Oc6ccccc6)ccc5s4)C3)c2c1 (stereo partly drawn)	< 5.52
CC(=O)N1CC[C@H]2CC[C@@H](C(=O)N(C)c3ccccc3)N2C(=O)[C@@H](NC(=O)c2cc3cc(C(F)(F)P(=O)(OCOC(=O)OCC(C)C)OCOC(=O)OCC(C)C)ccc3s2)C1	≥ 7.00

====

Molecular target: Recombinant STAT6 protein (STAT6(W123-T658)) (Homo sapiens)
Construct: Recombinant STAT6 protein (STAT6(W123-T658))
Sequence (P42226 123-658): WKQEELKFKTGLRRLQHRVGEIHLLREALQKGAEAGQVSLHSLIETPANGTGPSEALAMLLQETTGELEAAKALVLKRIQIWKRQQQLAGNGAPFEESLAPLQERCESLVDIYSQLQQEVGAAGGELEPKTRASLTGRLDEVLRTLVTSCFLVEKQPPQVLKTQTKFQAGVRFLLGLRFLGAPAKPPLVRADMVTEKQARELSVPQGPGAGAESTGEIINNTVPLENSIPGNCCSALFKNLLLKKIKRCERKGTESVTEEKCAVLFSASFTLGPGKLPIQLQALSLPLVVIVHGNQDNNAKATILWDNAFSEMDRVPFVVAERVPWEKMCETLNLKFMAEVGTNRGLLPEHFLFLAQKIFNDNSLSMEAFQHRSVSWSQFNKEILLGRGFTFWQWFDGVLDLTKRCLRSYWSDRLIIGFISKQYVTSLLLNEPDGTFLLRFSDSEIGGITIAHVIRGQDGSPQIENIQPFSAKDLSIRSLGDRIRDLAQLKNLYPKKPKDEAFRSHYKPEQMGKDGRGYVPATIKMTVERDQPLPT
Assay: STAT6 Fluorescence Polarization (FP) Assay
Conditions: STAT6(W123-T658) 250 nM, probe 5-FAM-ApYKPFQDLI-NH2 2 nM, 45-minute incubation
The entries below are paired with their reported IC50.
Recorded endpoint: IC50

Compound	Test result
N#C[C@H]1CN(C(=O)[C@@H]2CC[C@@H]3CCN(CC(F)F)C[C@H](NC(=O)c4ccc5ccc(C(F)(F)P(=O)(O)O)cc5c4)C(=O)N32)C[C@@H]1c1cc(F)cc(F)c1 (relative stereo) [Compound 246]	0.3 to 3 µM
CC(=O)N1CC[C@H]2CC[C@@H](C(=O)N(C)c3ccccc3)N2C(=O)[C@@H](NC(=O)c2cc3cc(C(F)P(=O)(O)O)ccc3s2)C1 (stereo partly shown) [Compound 22]	0.3 to 3 µM
CC(=O)N1CC[C@H]2CC[C@@H](C(=O)Nc3ccc(-c4ccccc4)cc3)N2C(=O)[C@@H](NC(=O)c2cc3cc(C(F)(F)P(=O)(O)O)ccc3[nH]2)C1 [Compound 58]	0.3 to 3 µM
CC(=O)N1CC[C@H]2CC[C@@H](C(=O)N(C)c3ccccc3)N2C(=O)[C@@H](NC(=O)c2cc3cc(C(C)(F)P(=O)(O)O)ccc3s2)C1 (stereo partly shown) [Compound 18]	3 to 30 µM
CN(C(=O)[C@@H]1CC[C@@H]2CCN(CC(F)F)C[C@H](NC(=O)c3cc4cc(C(F)(F)P(=O)(O)O)ccc4[nH]3)C(=O)N21)c1ccccc1 [Compound 218]	0.3 to 3 µM
O=C(N[C@H]1CCNC[C@H]2CC[C@@H](C(=O)N3CC(c4cccnc4)C3)N2C1=O)c1cc2cc(C(F)(F)P(=O)(O)O)ccc2s1 [Compound 212]	3 to 30 µM
N#C[C@@H]1CN(C(=O)[C@@H]2CC[C@@H]3CCN(CC(F)F)C[C@H](NC(=O)c4ccc5ccc(C(F)(F)P(=O)(O)O)cc5c4)C(=O)N32)C[C@H]1c1ccccc1 (single isomer, unassigned) [Compound 248]	≤ 0.3 µM

====

Target: Recombinant STAT3 protein (STAT3(G127-I722)) (Homo sapiens, UniProt P40763)
Construct: Recombinant STAT3 protein (STAT3(G127-I722))
Sequence (P40763 127-722): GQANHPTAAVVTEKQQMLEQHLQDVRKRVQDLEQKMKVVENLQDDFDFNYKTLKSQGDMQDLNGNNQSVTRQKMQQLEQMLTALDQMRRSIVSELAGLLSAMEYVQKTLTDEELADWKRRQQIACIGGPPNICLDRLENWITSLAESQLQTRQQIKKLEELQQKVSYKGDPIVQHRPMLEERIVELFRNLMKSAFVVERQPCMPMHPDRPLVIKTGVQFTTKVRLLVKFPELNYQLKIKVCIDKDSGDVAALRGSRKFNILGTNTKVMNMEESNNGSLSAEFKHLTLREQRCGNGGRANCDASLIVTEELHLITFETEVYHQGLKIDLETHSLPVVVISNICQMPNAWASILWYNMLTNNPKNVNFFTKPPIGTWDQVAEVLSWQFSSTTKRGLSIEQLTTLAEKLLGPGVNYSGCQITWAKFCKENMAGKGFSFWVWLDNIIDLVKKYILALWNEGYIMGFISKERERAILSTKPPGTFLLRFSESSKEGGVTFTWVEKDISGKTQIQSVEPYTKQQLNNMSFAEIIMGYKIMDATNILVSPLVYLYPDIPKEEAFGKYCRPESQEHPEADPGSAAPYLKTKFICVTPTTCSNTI
Assay: STAT3 Fluorescence Polarization (FP) Assay
Details: STAT3(G127-I722) 25 nM, probe 5-FAM-GpYLPQTV-NH2 2 nM, 45-minute incubation
Quick list: IC50 per entry.
Recorded endpoint: IC50

Molecule	Test result
CC(=O)N1CC[C@H]2CC[C@@H](C(=O)N3CCC[C@H]3Cc3cccnc3)N2C(=O)[C@@H](NC(=O)c2cc3cc(C(F)(F)P(=O)(O)O)ccc3s2)C1	1000 to 10000 nM
Cc1ccc2onc(C(=O)N3CC[C@H]4CC[C@@H](C(=O)N5C[C@@H](c6ccn(C)c(=O)c6)CC56CC6)N4C(=O)[C@@H](NC(=O)c4ccc5ccc([C@H](F)P(=O)(O)O)cc5c4)C3)c2c1	> 10000 nM
CC(=O)N1CC[C@H]2CC[C@@H](C(=O)N3CCCC3Cc3ccc(F)cc3)N2C(=O)[C@@H](NC(=O)c2cc3cc(C(F)(F)P(=O)(O)O)ccc3[nH]2)C1 (stereo partly drawn)	1000 to 10000 nM
CC(=O)Nc1ccn(C2CCN(C(=O)[C@@H]3CC[C@@H]4CCN(C(C)=O)C[C@H](NC(=O)c5cc6cc(C(F)(F)P(=O)(O)O)ccc6s5)C(=O)N43)C2)n1 (stereo partly drawn)	100 to 1000 nM
CC(=O)N1CC[C@H]2CC[C@@H](C(=O)N3CC(c4cccc(C#N)c4)C3)N2C(=O)[C@@H](NC(=O)c2cc3cc(C(F)(F)P(=O)(O)O)ccc3s2)C1	≤ 100 nM
CC(=O)N1CC[C@H]2CC[C@@H](C(=O)N3CCC(N(Cc4noc(C5CC5)n4)C(C)=O)C3)N2C(=O)[C@@H](NC(=O)c2cc3cc(C(F)(F)P(=O)(O)O)ccc3s2)C1 (stereo partly drawn)	1000 to 10000 nM

====

Biological target: Recombinant STAT3 protein (STAT3(G127-I722)) (Homo sapiens, UniProt P40763)
Construct: Recombinant STAT3 protein (STAT3(G127-I722))
Test: STAT3 Fluorescence Polarization (FP) Assay
Conditions: STAT3(G127-I722) 25 nM, probe 5-FAM-GpYLPQTV-NH2 2 nM, 45-minute incubation
pIC50: −log10 of the molar value.
pIC50 listing for selected molecules.

Molecule	Target or test system	pIC50
CC(=O)N1CC[C@H]2CC[C@@H](C(=O)N(C)c3ccccc3)N2C(=O)[C@@H](NC(=O)c2ccc3cc(P(=O)(O)O)ccc3c2)C1 [Compound 113]	Recombinant STAT3 protein (STAT3(G127-I722)) (Homo sapiens, UniProt P40763)	< 5.00
O=C(N[C@H]1CN(C(=O)Cc2ccccc2)CC[C@H]2CC[C@@H](C(=O)Nc3ccccc3-c3ccccc3)N2C1=O)c1cc2cc(C(F)(F)P(=O)(O)O)ccc2[nH]1 [Compound 265]	Recombinant STAT3 protein (STAT3(G127-I722)) (Homo sapiens, UniProt P40763)	5.00 to 6.00
CC(=O)N1CC[C@H]2CC[C@@H](C(=O)N3C[C@H](c4ccccc4)[C@@H](C#N)C3)N2C(=O)[C@@H](NC(=O)c2ccc3ccc(C(F)(F)P(=O)(O)O)cc3c2)C1 (relative stereo) [Compound 203]	Recombinant STAT3 protein (STAT3(G127-I722)) (Homo sapiens, UniProt P40763)	5.00 to 6.00

====

Target: Recombinant STAT3 protein (STAT3(G127-I722)) (Homo sapiens, UniProt P40763)
Construct: Recombinant STAT3 protein (STAT3(G127-I722))
Experiment: STAT3 Fluorescence Polarization (FP) Assay
Settings: STAT3(G127-I722) 25 nM, probe 5-FAM-GpYLPQTV-NH2 2 nM, 45-minute incubation
pIC50: −log10 of the molar value.
Measured pIC50, listed per entry.

Compound	Target or test system	pIC50
O=C(N[C@H]1CCN(CC(F)F)C[C@H]2CC[C@@H](C(=O)N3CC(c4cc[nH]c(=O)c4)CC34CC4)N2C1=O)c1ccc2ccc(C(F)(F)P(=O)(O)O)cc2c1 (stereo partly shown) [Compound 234]	Recombinant STAT3 protein (STAT3(G127-I722)) (Homo sapiens, UniProt P40763)	< 5.00
C[C@H](C(=O)N1CC[C@H]2CC[C@@H](C(=O)Nc3ccc(-c4ccccc4)cc3)N2C(=O)[C@@H](NC(=O)c2cc3cc(C(F)(F)P(=O)(O)O)ccc3[nH]2)C1)c1ccccc1 [Compound 255]	Recombinant STAT3 protein (STAT3(G127-I722)) (Homo sapiens, UniProt P40763)	6.00 to 7.00
CN(C)C(=O)[C@@H]1CC[C@@H]2CCN(Cc3ccccc3)C[C@H](NC(=O)c3cc4cc(C(F)(F)P(=O)(O)O)ccc4[nH]3)C(=O)N21 [Compound 225]	Recombinant STAT3 protein (STAT3(G127-I722)) (Homo sapiens, UniProt P40763)	5.00 to 6.00
Cc1ccc2onc(C(=O)N3CC[C@H]4CC[C@@H](C(=O)N5C[C@H](c6ccn(C)c(=O)c6)CC56CC6)N4C(=O)[C@@H](NC(=O)c4ccc5ccc([C@H](F)P(=O)(O)O)cc5c4)C3)c2c1 [Compound 390]	Recombinant STAT3 protein (STAT3(G127-I722)) (Homo sapiens, UniProt P40763)	5.00 to 6.00

====

Tested on: pY641-STAT6 in Peripheral Blood Mononuclear Cells (PBMC)
Assay: MSD-pSTAT-PBMC Assay (pSTAT6, IL-4 stimulated)
Format: cell-based, Human
Details: Homo sapiens, compound 3 hrs, then 1 ng/mL IL-4 for 10 min
Item-by-item account of IC50

Compound	IC50
CCCC(=O)SCCOP(=O)(OCCSC(=O)CCC)C(F)(F)c1ccc2ccc(C(=O)N[C@H]3CN(C(=O)c4noc5ccc(C)cc45)CC[C@H]4CC[C@@H](C(=O)N5C[C@H](c6ccn(C)c(=O)c6)CC56CC6)N4C3=O)cc2c1 [Compound 439]	≤ 100 nM
CC(C)(C)C(=O)OCOP(=O)(OCOC(=O)C(C)(C)C)C(F)(F)c1ccc2sc(C(=O)N[C@H]3CN(CC(F)F)CC[C@H]4CC[C@@H](C(=O)N5C[C@@H](C#N)[C@H](c6ccccc6)C5)N4C3=O)cc2c1 (single isomer, unassigned) [Compound 348]	≤ 100 nM
CC(=O)N1CC[C@H]2CC[C@@H](C(=O)N(C)c3ccc(C#N)cc3)N2C(=O)[C@@H](NC(=O)c2cc3cc(C(F)(F)P(=O)(OCOC(=O)C(C)(C)C)OCOC(=O)C(C)(C)C)ccc3s2)C1 [Compound 316]	1000 to 3000 nM
CC(=O)N1CC[C@H]2CC[C@@H](C(=O)N(C)C3CCN(S(C)(=O)=O)CC3)N2C(=O)[C@@H](NC(=O)c2cc3cc(C(F)(F)P(=O)(OCOC(=O)C(C)(C)C)OCOC(=O)C(C)(C)C)ccc3s2)C1 [Compound 312]	100 to 1000 nM
CCN1CC[C@H]2CC[C@@H](C(=O)N3C[C@@H](C#N)[C@H](c4ccccc4)C3)N2C(=O)[C@@H](NC(=O)c2cc3cc(C(F)(F)P(=O)(OCOC(=O)C(C)(C)C)OCOC(=O)C(C)(C)C)ccc3s2)C1 (single isomer, unassigned) [Compound 281]	≤ 100 nM
CC(=O)N1CC[C@H]2CC[C@@H](C(=O)N(C)c3ccccc3)N2C(=O)[C@@H](NC(=O)c2cc3cc(C(F)(F)P(=O)(OCOC(=O)C(C)(C)C)OCOC(=O)C(C)(C)C)ccc3s2)C1 [Compound 296]	≤ 100 nM
CC(=O)N1CC[C@H]2CC[C@@H](C(=O)N(C)c3ccccc3)N2C(=O)[C@@H](NC(=O)c2cc3cc(C(F)(F)P(=O)(OCCSC(=O)C(C)(C)C)Oc4ccccc4)ccc3s2)C1 (some centres unmarked) [Compound 289]	> 3000 nM
CCCOC(=O)[C@H](C)NP(=O)(Oc1ccccc1)C(F)c1ccc2ccc(C(=O)N[C@H]3CN(C(=O)c4noc5ccc(C)cc45)CC[C@H]4CC[C@@H](C(=O)N5C[C@@H]6C[C@H]5CO6)N4C3=O)cc2c1 (some centres unmarked) [Compound 414]	≤ 100 nM
CCCOC(=O)[C@H](C)NP(=O)(Oc1ccccc1)[C@@H](F)c1ccc2ccc(C(=O)N[C@H]3CN(C(=O)c4noc5ccc(C)cc45)CC[C@H]4CC[C@@H](C(=O)N5CC6CCC(C5)O6)N4C3=O)cc2c1 (some centres unmarked) [Compound 416]	≤ 100 nM
CCCC(=O)SCCOP(=O)(OCCSC(=O)CCC)C(F)(F)c1ccc2ccc(C(=O)N[C@H]3CN(C(C)=O)CC[C@H]4CC[C@@H](C(=O)N5CC(c6cc[nH]c(=O)c6)CC56CC6)N4C3=O)cc2c1 (some centres unmarked) [Compound 332]	≤ 100 nM
CC(=O)N1CC[C@H]2CC[C@@H](C(=O)NC3CCN(S(C)(=O)=O)CC3)N2C(=O)[C@@H](NC(=O)c2cc3cc(C(F)(F)P(=O)(OCOC(=O)C(C)(C)C)OCOC(=O)C(C)(C)C)ccc3s2)C1 [Compound 313]	1000 to 3000 nM
